- TARGET UNDER TEST: PfRH5 from Plasmodium falciparum strain Dd2 (Plasmodium falciparum)
- TEST DETAILS: cell-based or functional assay
Can you tell me Max growth inhibition (%) for the items I'm about to list?
Enter your answer as a number in %; do not include the unit.

Please give the measured Max growth inhibition (%) for this binder: H1H29125P (antibody, V domains shown) VH: QVQLVESGGGVVQPGRSLRLSCAASGFTFSSYGMHWVRQAPGKGLEWMAVISYDGSNKYYADSVKGRFTISRDNSKNTLFLQMNSLRPEDTAVYYCAQDGSSAIYYFYGMDVWGQGTTVTVSS VL: DIQMTQSPSSLSASIGDRVTITCRASQDINNYLAWFQQKPGKAPKSLIYAASSLQSGVPSKFSGSGSGTDFTLTISSLQPEDFATYYCLQYNSYHPTFGQGTKLEIKR
51.4

// lookup Max growth inhibition (%) for H1H29109P (antibody, V domains shown) VH: EVQLVESGGGLVQPGRSLRLSCAVSGFTFDDYAMHWVRQAPGKGLEWVSGISWNSGDIDYADSVKGRFTISRDNAKNSLYLQMNSLRAEDTALYYCAKDTLSGTGTTWYYFDYWGQGTLVTVSS VL: DIQLTQSPSFLSASVGDRVTITCWASQGISSYLIWYQQKPGKAPKLLIYAASTLQSGVPSRFSGSGSGTEFTLTISSLQPEDFATYYCQQVNSYPLTFGGGTKVEIKR
42

What value of Max growth inhibition (%) has been reported for the following binder? H1H29138P (antibody, V domains shown) VH: QVQLVESGGGVVQPGRSLRLSCAASGFTFSTYGMHWVRQAPGKGLEWVAVIWYDGTNKYYADSVKGRFTISRDNSKNTLYLQMISLRAEDTAVYYCARDPSGGDHYYYYGMDVWGQGTTVTVSS VL: DIQMTQSPSSLSASVGDRITITCQASQDISNYLNWYQQKPGKAPNLLISDASDLETGVPSRFSGSGSGTDFTFTISSLQPEDFATYYCQQYDNIPITFGQGTRLEIKR
74.4

Record request: Max growth inhibition (%) value, item H1H29089P (antibody, V domains shown) VH: EVQLVQSGAEVKKPGESLKISCKGSGYSFTSYWIVWVRQMPGKGLEWMGIIYPGDSDTRYSPSFQGQVTISADKSISTAYLQWSSLKASDTAMYYCARQDITGTTGFDYWGQGTLVTVSS VL: DIQMTQSPSSLSASVGDRVTITCRASQSIRNYLNWYQQKPGKAPKLLIYAASSLQSGVPSRFSGSGSGTDFTLTISSLQPEDFATYFCQQSYSTPFTFGPGTKVDIKR
71.3

Source listed as patent US20210024625A1.
